System: MOLT-4 leukemia
Assay: NCI-60 one-dose screen, 48 h
Conditions: 10 µM unless noted
About 83,000 compounds went through this panel and 20% of them were active in at least one assay; those are over-represented in the sample as a whole. Activity calls are given as the source filed them. Rule for the calls: active = growth percent below 10; inactive = the rest.
Your reply should match one of these outcome classes. 1.0 for active, 0.0 for inactive

Before answering, review these 3 worked examples.
[
  {
    "Compound": "CCCC(=O)NC(c1cccnc1)c1cc(C(C)(C)C)c2cccnc2c1O (stereo not given)",
    "Target or system": "MOLT-4 leukemia",
    "Label value": 0.0
  },
  {
    "Compound": "Cn1ccnc1C(=O)/C=C/c1ccc(NC(=O)c2c(F)c(F)c(F)c(F)c2F)cc1",
    "Target or system": "MOLT-4 leukemia",
    "Label value": 0.0
  },
  {
    "Compound": "C=C(C)[C@@H]1CC[C@]2(COP(=O)(OCC)OCC)CC[C@]3(C)[C@H](CC[C@@H]4[C@@]5(C)CCCNC(C)(C)[C@@H]5CC[C@]43C)[C@@H]12",
    "Target or system": "MOLT-4 leukemia",
    "Label value": 1.0
  }
]

Ask: What did the test return for COc1cc2nc(Cl)nc(Nc3cccc(C4=Nc5c(N)nc(N)nc5NC(c5ccc(Cl)cc5)C4)c3)c2cc1OC (stereo not given) ?
Result: 0.0

Ask: Check `O=C(CN1CCN(c2cc(=O)n(-c3ccccc3)c3ccccc23)CC1)Nc1ccc(F)cc1` too.
Result: 0.0

====

System: SK-MEL-28 melanoma
Assay: NCI-60 one-dose screen, 48 h (100 = growth as untreated, 0 = no growth, -100 = all killed)
Conditions: 10 µM unless noted
This is part of a sample that, as a whole, favours compounds with a hit. Of some 83,000 tested, about 20% had one in any assay.
In this section we review reported growth values for a set of compounds.
Write the value in % as a bare number.

For orientation, consider the following solved cases.
[
  {
    "Compound": "C[C@@H]1C[C@H]2C(=O)O[C@@H](C)C(NC(=O)[C@H](Cc3cc(F)cc(F)c3)NC(=O)Nc3ccc(C4CC4)cc3F)C(=O)N3CCC[C@H]3C(=O)N3CCCC[C@H]3C(=O)N[C@@H](CO)C(=O)N2C1 (stereo partly drawn)",
    "Target or system": "SK-MEL-28 melanoma",
    "Property measured": "growth",
    "Observed value": 41.1
  },
  {
    "Compound": "COc1cc(OC)c(S(N)(=O)=O)cc1C(=O)/C=C/c1ccc(Cl)cc1",
    "Target or system": "SK-MEL-28 melanoma",
    "Property measured": "growth",
    "Observed value": 30.5
  },
  {
    "Compound": "CCOc1ccc(C(=O)Nc2ncc(Cc3ccc(F)cc3)s2)cc1",
    "Target or system": "SK-MEL-28 melanoma",
    "Property measured": "growth",
    "Observed value": 61.9
  },
  {
    "Compound": "Fc1ccc(-c2cc3nc(C(Cl)Cl)nc(-c4ccco4)n3n2)cc1",
    "Target or system": "SK-MEL-28 melanoma",
    "Property measured": "growth",
    "Observed value": -24.5
  },
  {
    "Compound": "O=C(NCCN1CCCC1)c1ccc(-c2nc3ccc4[nH]ncc4c3c3c2CCCC3)cc1",
    "Target or system": "SK-MEL-28 melanoma",
    "Property measured": "growth",
    "Observed value": 5.05
  },
  {
    "Compound": "Cc1cc(C(NC(=O)CCCCCNc2cccc3c2C(=O)N(C2CCC(=O)NC2=O)C3=O)c2ccc3c(c2)OC(F)(F)O3)c(O)c2ncccc12 (stereo not drawn)",
    "Target or system": "SK-MEL-28 melanoma",
    "Property measured": "growth",
    "Observed value": 81
  },
  {
    "Compound": "C[C@H]1c2[nH]c3ccccc3c2C[C@H]2C(=O)N(CCCCCCC(=O)NO)CC(=O)N21",
    "Target or system": "SK-MEL-28 melanoma",
    "Property measured": "growth",
    "Observed value": 78.9
  },
  {
    "Compound": "COc1ccc(C2c3sc4c(C)cccc4c3Oc3nc(CC(=O)Nc4ccccc4)[nH]c(=O)c32)cc1 (stereo not drawn)",
    "Target or system": "SK-MEL-28 melanoma",
    "Property measured": "growth",
    "Observed value": 76
  }
]

Ask: So what does the record say about growth for `CC/C(=C/c1c(O)cccc1OC)c1ccc2c(OC)cccc2[o+]1` ?
Result: 97.3

Ask: Check `CN(C)CCNC(=O)c1ccc(-c2nc3ccc4[nH]ncc4c3c3c2COCC3)cc1` too.
Result: -6.13

Ask: Check CCNC(=O)N1CCc2cc(OC)c(OCCc3ccc(OC)c(N)c3)cc2C1c1ccc(C)cc1C (stereo not drawn) too.
Result: 42.5

Ask: Check `NC(N)=Nc1ccc(Oc2cccc(Oc3ccc(Cl)c(C(F)(F)F)c3)c2)cn1` too.
Result: -29.4

Ask: Check `C=C1CC[C@@H]2[C@](C)(CO)[C@H](O)CC[C@@]2(C)[C@@H]1C/C(O)=C1\CCOC1=O` too.
Result: 108

Ask: Check `Cc1ccc(N2C(=O)/C(=C/C=C/c3ccco3)SC2=S)cc1` too.
Result: 95.8

Ask: Check `CN1CCN(c2ccc(/C=N/n3cnc4oc(-c5ccccc5)cc4c3=N)cc2)CC1` too.
Result: 77.8

Ask: Check `Cc1occc1-c1nc2s/c(=C/c3ccc(-c4cc(C(F)(F)F)ccc4Cl)o3)c(=O)n2n1` too.
Result: 112

Ask: Check `CCCCCc1ccc(S(=O)(=O)Nc2cccc(-c3csc(NC(=O)CN4CCN(C)CC4)n3)c2)cc1` too.
Result: 89.4

Ask: Check `CCn1c(SCC(=O)Nc2cccc(C(=O)/C=C/c3ccc(C)cc3)c2)nc2ccccc2c1=O` too.
Result: 95.8

Ask: Check COC(=O)c1[nH]nc2c1C1(C(=O)c3cccc4cccc1c34)C(C#N)=C(N)O2 (stereo not drawn) too.
Result: 112

Ask: Check `Cc1ccc(NC(=S)NNC(=S)Nc2ccc(C)cc2)cc1` too.
Result: 105

Ask: Check O=C(NNc1nc2cc(F)ccc2n2c(CN3CCC(O)C3)ccc12)c1cnccn1 (stereo not drawn) too.
Result: 25.5

Ask: Check `CNC(=O)c1c(NC(=O)c2ccccc2C(F)(F)F)sc2c1CCC(=O)C2` too.
Result: 45.4

Ask: Check `Fc1ccc(-c2cc3nc(C(Cl)Cl)nc(-c4ccc(F)cc4)n3n2)cc1` too.
Result: -5.14

Ask: Check CCc1cccc2c3c(sc12)C(c1ccc(OC)cc1)C(C#N)=C(/N=C/c1ccc(Cl)cc1)O3 (stereo not drawn) too.
Result: 59.8

Ask: Check `COc1ccc(-c2nc(C(Cl)Cl)nc3cc(-c4ccccc4)nn23)cc1` too.
Result: -46.4

Ask: Check CCCn1cnc2c(c1=N)C(c1ccc(OC)cc1)c1sc3c(C)cccc3c1O2 (stereo not drawn) too.
Result: 53.9

Ask: Check `Cn1cc(-c2nc(N)nnc2-c2c[nH]c3ccccc23)c2cc(Br)ccc21` too.
Result: 55.2

Ask: Check `CCCCCc1ccc(S(=O)(=O)Nc2cc(-c3csc(NC(=O)CN4CCN(C)CC4)n3)ccc2OC)cc1` too.
Result: -69.4

====

Tested on: SNB-19 CNS
Experiment: NCI-60 one-dose screen, 48 h
Conditions: 10 µM unless noted
Compounds without any hit were thinned out: in the full panel of roughly 83,000, 20% have a hit. The source made the active and inactive calls. Rule for the calls: active = growth percent below 10; inactive = the rest.
Your reply should match one of these outcome classes. 1 = active, -1 = inactive

[
  {
    "Compound": "NS(=O)(=O)c1ccc(-n2cc(CN3CCNCC3)nn2)cc1",
    "Label value": -1
  }
]

Ask: What did the test return for CCN(CC)c1ccc2c(c1)Oc1nc(N)c(C#N)c(N)c1C2Sc1ccc(F)cc1 (configuration not stated) ?
Result: 1

Ask: Check `O=C(CCC(=O)N1CCOCC1)OCCCCCCSc1ccc([N+](=O)[O-])c2nonc12` too.
Result: -1

Ask: Check `COc1cccc(O)c1/C=C(/C)c1ccc2c(OC)cccc2[o+]1` too.
Result: -1

====

Test system: NCI-H23 lung
Experiment: NCI-60 one-dose screen, 48 h (100 = growth as untreated, 0 = no growth, -100 = all killed)
Settings: 10 µM unless noted
About 83,000 compounds went through this panel and 20% of them were active in at least one assay; those are over-represented in the sample as a whole.
Returns the class for an entry based on its growth. Class ranges: bottom range (below 30%), center range (30% to below 90%), top range (90% or more)

[
  {
    "Compound": "CCCn1cnc2c(c1=N)C(c1ccc(OC)cc1)c1sc3c(C)cccc3c1O2 (stereo unspecified)",
    "Target or system": "NCI-H23 lung",
    "Label value": "bottom range"
  },
  {
    "Compound": "C#Cc1ccc(C(=O)NCc2ccc(/C=C/C(=O)c3nccn3C)cc2)cc1",
    "Target or system": "NCI-H23 lung",
    "Label value": "bottom range"
  },
  {
    "Compound": "CC1(C)CC[C@]23CC[C@]4(C)[C@H](CC[C@@H]5[C@@]6(C)CCCN(CO)C(C)(C)[C@@H]6CC[C@]54C)[C@H]2[C@H]1OC3",
    "Target or system": "NCI-H23 lung",
    "Label value": "center range"
  },
  {
    "Compound": "O=C(Nc1nc2ccc([N+](=O)[O-])cc2s1)Nc1ccccc1Cl",
    "Target or system": "NCI-H23 lung",
    "Label value": "bottom range"
  },
  {
    "Compound": "CN1CCN(Cc2ccc(NC(=O)c3cncc(C#Cc4cnn5cccnc45)c3)cc2C(F)(F)F)CC1",
    "Target or system": "NCI-H23 lung",
    "Label value": "bottom range"
  }
]

Ask: Into which bin does this compound go? `N/C(=N\C(N)=N\c1nc2ccccc2s1)c1ccncc1Cl`
Result: center range

Ask: Check `CC1=N[C@@H]2CN(C(=O)OC(C)(C)C)C[C@@H]2n2c1cc1ccccc1c2=O` too.
Result: top range

Ask: Check `CCn1c(SCC(=O)Nc2cccc(C(=O)/C=C/c3cc(OC)c(OC)c(OC)c3)c2)nc2ccccc2c1=O` too.
Result: bottom range

Ask: Check `NC(N)=Nc1ccc(Oc2cccc(NC(N)=Nc3ccc(I)cc3F)c2)cc1` too.
Result: center range

Ask: Check `CC1(C)[C@@H](O)CC[C@]2(C)[C@H]3CC[C@@H]4[C@H]5[C@H](C(=O)/C=C\c6ccc([N+](=O)[O-])cc6)CC[C@]5(O)CC[C@@]4(C)[C@]3(C)CC[C@@H]12` too.
Result: center range

Ask: Check COC(=O)c1[nH]nc2c1C1(C(=O)c3cccc4cccc1c34)C(C#N)=C(N)O2 (stereo unspecified) too.
Result: top range

Ask: Check `NS(=O)(=O)c1ccc(Nc2nc(N/N=C/c3ccc(Cl)cc3)nc(Nc3ccccc3)n2)cc1` too.
Result: center range
